target: human TLR7 (Homo sapiens); construct: expressed in transfected cells; host or cells: HEK293; assay: TLR7 wild type NFκB-luc cellular reporter assay; type: cell-based; set-up: unit not given here; conditions: HEK293 NFκB-luc reporter, 6 hours incubation; second part of table
Sequence (Q9NYK1 27-1049): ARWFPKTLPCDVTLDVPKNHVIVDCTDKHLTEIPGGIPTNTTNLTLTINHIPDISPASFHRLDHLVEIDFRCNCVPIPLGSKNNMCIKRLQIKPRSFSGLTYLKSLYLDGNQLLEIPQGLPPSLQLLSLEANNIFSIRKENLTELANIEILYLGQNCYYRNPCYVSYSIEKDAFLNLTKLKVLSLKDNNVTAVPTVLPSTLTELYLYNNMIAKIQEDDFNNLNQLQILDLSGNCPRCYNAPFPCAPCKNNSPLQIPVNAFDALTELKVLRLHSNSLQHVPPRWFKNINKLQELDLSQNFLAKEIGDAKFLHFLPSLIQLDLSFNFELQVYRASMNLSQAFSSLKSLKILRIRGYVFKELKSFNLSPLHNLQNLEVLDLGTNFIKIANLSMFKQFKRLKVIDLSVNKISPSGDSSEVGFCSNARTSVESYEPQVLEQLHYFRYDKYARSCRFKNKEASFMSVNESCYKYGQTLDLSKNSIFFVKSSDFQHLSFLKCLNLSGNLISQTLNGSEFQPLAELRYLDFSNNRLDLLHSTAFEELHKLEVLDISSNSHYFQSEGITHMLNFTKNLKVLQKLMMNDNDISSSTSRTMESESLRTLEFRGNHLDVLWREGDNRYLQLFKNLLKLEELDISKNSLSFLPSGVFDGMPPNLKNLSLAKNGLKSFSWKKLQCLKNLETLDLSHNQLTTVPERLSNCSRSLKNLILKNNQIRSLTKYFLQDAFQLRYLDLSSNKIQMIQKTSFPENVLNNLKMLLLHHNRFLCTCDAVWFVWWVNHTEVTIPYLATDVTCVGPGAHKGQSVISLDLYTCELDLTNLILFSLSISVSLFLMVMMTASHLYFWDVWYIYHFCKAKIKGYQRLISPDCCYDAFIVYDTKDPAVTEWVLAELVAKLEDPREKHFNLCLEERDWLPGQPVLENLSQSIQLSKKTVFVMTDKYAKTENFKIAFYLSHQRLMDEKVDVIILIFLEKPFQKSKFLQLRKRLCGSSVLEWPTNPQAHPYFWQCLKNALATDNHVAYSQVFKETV
Test Readout: TLR7-wt (LEC)
Number, no unit, nothing else.

Consider the worked cases shown below.
CCC[C@@H](CO)Nc1nc(N)nc2c(F)cccc12 | 0.67
CCCCNc1nc(N)nc2cc(C(=O)OC)ccc12 | 5.10
CCCCNc1nc(N)nc2cc(Cl)c3c(c12)OCCO3 | 2.06
CCCCNc1nc(N)nc2ccc(Br)cc12 | 0.51
C#CCOc1cccc2nc(N)nc(NCCCC)c12 | 0.05
CCCCNc1nc(N)nc2ccc(CO)cc12 | 0.93
CCCCNc1nc(N)nc2c(F)cccc12 | 0.16
CCCCNc1nc(N)nc2cc(C(=O)NCc3ccccc3)ccc12 | 0.54

Lab note: next compound to report on.
Using the record for `CCCC[C@@H](CCO)Nc1nc(N)nc2cc(OC)ccc12` , report its TLR7-wt (LEC).
0.16
